TEST_PROTOCOL: Half-life in rat at 3 mg/kg, po or 1 mg/kg, iv
Format: ADME, organism-based
REPORTED_CONDITIONS: in vivo
MEASURED_METRIC: half-life (h)
Just the number in h, nothing appended.

Ask: Sample CN1Cc2cc3c(cc2C1)C(=O)N(C1CCC(=O)NC1=O)C3 (stereo unspecified) — what was its half-life?
Result: 2.2

---

TEST_PROTOCOL: Metabolic stability in monkey liver microsome assessed as half-life at 1 uM preincubated for 5 mins followed by NADPH addition and measured upto 60 mins by LC-MS/MS analysis
Assay type: ADME, Macaca mulatta
REPORTED_CONDITIONS: rhesus monkey, liver microsomes, time < 65 min
MEASURED_METRIC: half-life at 1 µM (min)
The figure you give is taken to be in min; do not add the unit.

Ask: Using the record for CN1Cc2cc3c(cc2C1)C(=O)N(C1CCC(=O)NC1=O)C3=O (configuration not stated) , report its half-life at 1 µM.
Result: 54

---

TEST_PROTOCOL: in vitro
REPORTED_CONDITIONS: human, Caco-2
MEASURED_METRIC: Papp B→A at 2 h, 10 µM (×10⁻⁶ cm/s)
Return type: number; implicit unit ×10⁻⁶ cm/s.

Ask: Need Papp B→A at 2 h, 10 µM, item CN1Cc2cc3c(cc2C1)C(=O)N(C1CCC(=O)NC1=O)C3 (stereo unspecified)
Result: 6.8

---

# half-life at 1 h, 1 µM per entry
TEST_PROTOCOL: in vitro
REPORTED_CONDITIONS: mouse, liver microsomes

compound="CN1Cc2cc3c(cc2C1)C(=O)N(C1CCC(=O)NC1=O)C3 (configuration not stated)" result="> 60 min"

Note: attention shifts to another entry.
Ask: Record request: half-life at 1 h, 1 µM value, item CN1Cc2cc3c(cc2C1)C(=O)N(C1CCC(=O)NC1=O)C3=O (configuration not stated)
Result: > 60 min

---

TEST_PROTOCOL: Cmax in rat at 3 mg/kg, po or 1 mg/kg, iv
Format: ADME, organism-based
REPORTED_CONDITIONS: in vivo
MEASURED_METRIC: Cmax (ng/mL)
Answer with a number only, understood to be in ng/mL.

Ask: What value of measured Cmax is listed for CN1Cc2cc3c(cc2C1)C(=O)N(C1CCC(=O)NC1=O)C3 (stereo unspecified) ?
Result: 276

---

TEST_PROTOCOL: Oral bioavailability in rat at 3 mg/kg
Format: ADME, organism-based
REPORTED_CONDITIONS: in vivo
Measured bioavailability by item

compound="CN1Cc2cc3c(cc2C1)C(=O)N(C1CCC(=O)NC1=O)C3 (configuration not stated)" result=60%

Ask: If you can, please state the reported bioavailability value of CN1Cc2cc3c(cc2C1)C(=O)N(C1CCC(=O)NC1=O)C3=O (configuration not stated) .
Result: 70%

---

TEST_PROTOCOL: AUC in rat at 3 mg/kg, po or 1 mg/kg, iv
Assay type: ADME, organism-based
REPORTED_CONDITIONS: in vivo
MEASURED_METRIC: AUC (ng·h/mL)
Report the value in ng·h/mL with no unit label.

Ask: For the compound CN1Cc2cc3c(cc2C1)C(=O)N(C1CCC(=O)NC1=O)C3 (stereo unspecified) , what AUC is on record?
Result: 1500

---

TEST_PROTOCOL: in vitro
REPORTED_CONDITIONS: human, liver microsomes
Each record here notes measured half-life at 1 h, 1 µM.

compound="CN1Cc2cc3c(cc2C1)C(=O)N(C1CCC(=O)NC1=O)C3 (configuration not stated)" result="> 1 h"

Ask: Could you tell me which half-life at 1 h, 1 µM is on file for CN1Cc2cc3c(cc2C1)C(=O)N(C1CCC(=O)NC1=O)C3=O (configuration not stated) ?
Result: > 1 h

---

TEST_PROTOCOL: Metabolic stability in dog liver microsome assessed as half-life at 1 uM preincubated for 5 mins followed by NADPH addition and measured upto 60 mins by LC-MS/MS analysis
Assay type: ADME, Canis lupus familiaris
REPORTED_CONDITIONS: liver microsomes, time < 65 min
MEASURED_METRIC: half-life at 1 µM

Ask: Looking for the measured half-life at 1 µM of CN1Cc2cc3c(cc2C1)C(=O)N(C1CCC(=O)NC1=O)C3=O (configuration not stated) , can you help?
Result: > 1 h

Ask: What value of half-life at 1 µM has been reported for the following compound? CN1Cc2cc3c(cc2C1)C(=O)N(C1CCC(=O)NC1=O)C3 (configuration not stated)
Result: > 1 h

---

TEST_PROTOCOL: in vitro
REPORTED_CONDITIONS: human, Caco-2
MEASURED_METRIC: Papp A→B at 2 h, 10 µM

Ask: Requested read-out: Papp A→B at 2 h, 10 µM. Entry: CN1Cc2cc3c(cc2C1)C(=O)N(C1CCC(=O)NC1=O)C3 (stereo unspecified)
Result: 2.55 ×10⁻⁶ cm/s
